Hello, the source for this data is paper PMC9788556, in case you need it.

Target: T1, Pfs230 D1 (aa 587–731) (Plasmodium falciparum 3D7, UniProt P68874)
T1 construct: used untagged; also called first 6-cys domain of Pfs230; source: Sf21 insect cells (baculovirus), secreted, purified (Ni-NTA, TEV cleavage, SEC); not shown: His8, N-terminal, cleaved
T1 sequence (P68874 587-731): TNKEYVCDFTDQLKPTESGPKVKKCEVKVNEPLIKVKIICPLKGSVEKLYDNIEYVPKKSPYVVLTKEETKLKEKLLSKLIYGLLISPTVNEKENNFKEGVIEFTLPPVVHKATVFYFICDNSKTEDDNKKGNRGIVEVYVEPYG
Test: BLI; Octet RED96e; monomeric nanobodies (5 µg/ml) on Ni-NTA sensor tips; untagged Pfs230 D1D2 6 to 200 nM or untagged Pfs230 D1 0.8 to 100 nM; PBS pH 7.4, 0.1% BSA, 0.05% TWEEN-20, 25°C; global 1 : 1 fit
Conditions: both partners purified
experimental_endpoint: binding result

nanobody A11 (VHH, From a phage display library (pMES4) of an alpaca immunized with Pfs230 D1D2; source: E. coli WK6, periplasmic extract, purified (HisTrap)) VHH: QVQLQESGGGLVQPGESLRLSCAASGRTSSSYAMGWFRQAPGKEREFVASISWSGGSTYYADSVKGRFTLSRDNAKNTVYLQMNSLKPEDTAVYYCAADGIFYSDYPLSVDDFHSWGQGTQVTVSS :: binds
nanobody B4 (VHH, From a phage display library (pMES4) of an alpaca immunized with Pfs230 D1D2; source: E. coli WK6, periplasmic extract, purified (HisTrap)) VHH: QVQLQESGGGLVQPGGSLRLSCAASGFTLDYYGIGWFRQAPGKEREGVSCISSSDGSTYYADSVKGRFTISRDNAKNTVYLQMNSLKPEDTAVYYCAADLTGIGCTTAQAMGVIGDFGDFGSWGQGTQVTVSS :: binds
